system: K. pneumoniae NVT1001 and its ΔompK35/36 and/or ΔramR mutants; assay: Etest MIC, OmpK35/36 loss and AcrAB-TolC overexpression (ΔramR) strains (Table 6); type: cell-based, Klebsiella pneumoniae; details: Klebsiella pneumoniae, Δ35/36, ΔompK35/36 mutant
// NB: equality with 1 µg/mL counts as condition not met; only MIC strictly below is condition met

compound="CCn1cc(C(=O)O)c(=O)c2cc(F)c(N3CCNCC3)cc21 [Norfloxacin, norfloxacin]" class="condition met"

Please state whether MIC is below 1 µg/mL for COc1c(N2C[C@@H]3CCCN[C@@H]3C2)c(F)cc2c(=O)c(C(=O)O)cn(C3CC3)c12 [Moxifloxacin, moxifloxacin]
condition met

How about O=C(N[C@H](CO)[C@H](O)c1ccc([N+](=O)[O-])cc1)C(Cl)Cl [Chloramphenicol] ?
condition not met

How about NCC[C@H](O)C(=O)N[C@@H]1C[C@H](N)[C@@H](O[C@H]2O[C@H](CN)[C@@H](O)[C@H](O)[C@H]2O)[C@H](O)[C@H]1O[C@H]1O[C@H](CO)[C@@H](O)[C@H](N)[C@H]1O [Amikacin] ?
condition not met

How about C[C@@H](O)[C@H]1C(=O)N2C(C(=O)O)=C(S[C@@H]3CN[C@H](C(=O)Nc4cccc(C(=O)O)c4)C3)[C@H](C)[C@H]12 [Ertapenem] ?
condition not met

How about C[C@H]1COc2c(N3CCN(C)CC3)c(F)cc3c(=O)c(C(=O)O)cn1c23 [Levofloxacin, levofloxacin] ?
condition met

How about CCN[C@@H]1C[C@H](N)[C@@H](O[C@H]2OC(CN)=CC[C@H]2N)[C@H](O)[C@H]1O[C@H]1OC[C@](C)(O)[C@H](NC)[C@H]1O [Netilmicin] ?
condition met

How about CO/N=C(\C(=O)N[C@@H]1C(=O)N2C(C(=O)O)=C(COC(C)=O)CS[C@H]12)c1csc(N)n1 [Cefotaxime] ?
condition not met

How about C[C@H]1[C@H](NC(=O)/C(=N\OC(C)(C)C(=O)O)c2csc(N)n2)C(=O)N1S(=O)(=O)O [Aztreonam] ?
condition met

###

MIC for assorted compounds
tested on: K. pneumoniae NVT1001 strains with carbapenemase plasmids; assay: Etest MIC of β-lactams, OmpK35/36 loss, ΔramR and/or carbapenemase (Table 9); assay type: cell-based, Klebsiella pneumoniae; conditions: Klebsiella pneumoniae, KPC-2 on pACYC177; ΔramRΔ35 (ΔramRΔompK35 mutant)

compound="CO/N=C(\\C(=O)N[C@@H]1C(=O)N2C(C(=O)[O-])=C(C[N+]3(C)CCCC3)CS[C@H]12)c1csc(N)n1 [Cefepime]" recorded_measurement="64 µg/mL"
compound=C[C@@H](O)[C@H]1C(=O)N2C(C(=O)O)=C(S[C@@H]3CN[C@H](C(=O)N(C)C)C3)[C@H](C)[C@H]12 recorded_measurement="> 32 µg/mL"
compound=CCO/N=C(\C(=O)N[C@@H]1C(=O)N2C(C(=O)[O-])=C(Sc3nc(-c4cc[n+](C)cc4)cs3)CS[C@H]12)c1nsc(N)n1 recorded_measurement="> 256 µg/mL"
compound=CO/N=C(\C(=O)N[C@@H]1C(=O)N2C(C(=O)O)=C(COC(N)=O)CS[C@H]12)c1ccco1 recorded_measurement="> 256 µg/mL"
compound=C[C@@H](O)[C@H]1C(=O)N2C(C(=O)O)=C(S[C@@H]3CN[C@H](CNS(N)(=O)=O)C3)[C@H](C)[C@H]12 recorded_measurement="32 µg/mL"
compound=C[C@@H](O)[C@H]1C(=O)N2C(C(=O)O)=C(S[C@@H]3CN[C@H](C(=O)Nc4cccc(C(=O)O)c4)C3)[C@H](C)[C@H]12 recorded_measurement="> 32 µg/mL"
compound=CO/N=C(\C(=O)N[C@@H]1C(=O)N2C(C(=O)O)=C(COC(C)=O)CS[C@H]12)c1csc(N)n1 recorded_measurement="256 µg/mL"

// moving on: another record for MIC
Using the record for CO[C@@]1(NC(=O)Cc2cccs2)C(=O)N2C(C(=O)O)=C(COC(N)=O)CS[C@@H]21 , report its MIC.
128 µg/mL

###

tested on: K. pneumoniae NVT1001 strains with QnrB, QnrS or AAC(6′)-Ib-cr plasmids; experiment: Etest MIC of quinolones, GyrA/ParC mutations, ΔramR and/or QnrB, QnrS or AAC(6′)-Ib-cr (Table 12); type: cell-based; conditions: Klebsiella pneumoniae, AAC(6′)-Ib-cr on pACYC177; ΔramR/S83I mutant
MIC for assorted molecules
Write the answer as a number in µg/mL, unit excluded.

Using the record for COc1c(N2C[C@@H]3CCCN[C@@H]3C2)c(F)cc2c(=O)c(C(=O)O)cn(C3CC3)c12 , report its MIC.
16

How about C[C@H]1COc2c(N3CCN(C)CC3)c(F)cc3c(=O)c(C(=O)O)cn1c23 ?
8

How about CCn1cc(C(=O)O)c(=O)c2cc(F)c(N3CCNCC3)cc21 ?
128

###

system: K. pneumoniae NVT1001 strains with ESBL or AmpC β-lactamase plasmids; assay: Etest MIC of β-lactams, OmpK35/36 loss, ΔramR and/or extended-spectrum β-lactamase and AmpC β-lactamase (Table 8); format: cell-based, Klebsiella pneumoniae; conditions: Klebsiella pneumoniae, CTX-M-15 on pACYC177; ΔramRΔ35 (ΔramRΔompK35 mutant)
MIC for assorted molecules
Write the answer as a number in µg/mL, unit excluded.

Check out these entries, answers already filled in.
record_smiles=C[C@@H](O)[C@H]1C(=O)N2C(C(=O)O)=C(SCCN=CN)C[C@H]12 unit_symbol=µg/mL recorded_measurement=0.25
record_smiles=CO[C@@]1(NC(=O)Cc2cccs2)C(=O)N2C(C(=O)O)=C(COC(N)=O)CS[C@@H]21 unit_symbol=µg/mL recorded_measurement=64

Using the record for C[C@@H](O)[C@H]1C(=O)N2C(C(=O)O)=C(S[C@@H]3CN[C@H](C(=O)Nc4cccc(C(=O)O)c4)C3)[C@H](C)[C@H]12 , report its MIC.
0.5

###

Test system: K. pneumoniae NVT1001 strains with carbapenemase plasmids
Test: Etest MIC of β-lactams, OmpK35/36 loss, ΔramR and/or carbapenemase (Table 9)
Format: cell-based, Klebsiella pneumoniae
Settings: Klebsiella pneumoniae, IMP-8 on pACYC177; ΔramRΔ35 (ΔramRΔompK35 mutant)
Procedure: DNA fragments of the resistance genes along with their flanking regions were amplified from clinical plasmids via PCR with specific primer pairs. The resulting PCR fragments were digested and then cloned into the plasmid pACYC177 or pACYC184. The resulting plasmids were then transformed into K. pneumoniae strain NVT1001 via electroporation. […] The MICs of antibiotics were determined using the Etest (Biodisk AB, Sweden) according to the manufacturer's instructions. […]
property-label: MIC (µg/mL)
Write the answer as a number in µg/mL, unit excluded.

Check out these entries, answers already filled in.
molecule="CCO/N=C(\\C(=O)N[C@@H]1C(=O)N2C(C(=O)[O-])=C(Sc3nc(-c4cc[n+](C)cc4)cs3)CS[C@H]12)c1nsc(N)n1 [Ceftaroline]" property_label=MIC recorded_measurement=64
molecule="C[C@@H](O)[C@H]1C(=O)N2C(C(=O)O)=C(S[C@@H]3CN[C@H](CNS(N)(=O)=O)C3)[C@H](C)[C@H]12 [Doripenem]" property_label=MIC recorded_measurement=2
molecule="C[C@@H](O)[C@H]1C(=O)N2C(C(=O)O)=C(S[C@@H]3CN[C@H](C(=O)Nc4cccc(C(=O)O)c4)C3)[C@H](C)[C@H]12 [Ertapenem]" property_label=MIC recorded_measurement=4

Using the record for C[C@@H](O)[C@H]1C(=O)N2C(C(=O)O)=C(SCCN=CN)C[C@H]12 [Imipenem] , report its MIC.
4

###

MIC for assorted compounds
tested on: K. pneumoniae NVT1001 strains with carbapenemase plasmids; test: Etest MIC of β-lactams, OmpK35/36 loss, ΔramR and/or carbapenemase (Table 9); type: cell-based, Klebsiella pneumoniae; details: Klebsiella pneumoniae, NDM-1 on pACYC177; Δ36 (ΔompK36 mutant)

Check out these entries, answers already filled in.
compound="CO/N=C(\\C(=O)N[C@@H]1C(=O)N2C(C(=O)[O-])=C(C[N+]3(C)CCCC3)CS[C@H]12)c1csc(N)n1 [Cefepime]" recorded_measurement="> 256 µg/mL"
compound="C[C@H]1[C@H](NC(=O)/C(=N\\OC(C)(C)C(=O)O)c2csc(N)n2)C(=O)N1S(=O)(=O)O [Aztreonam]" recorded_measurement="0.06 µg/mL"
compound="CCO/N=C(\\C(=O)N[C@@H]1C(=O)N2C(C(=O)[O-])=C(Sc3nc(-c4cc[n+](C)cc4)cs3)CS[C@H]12)c1nsc(N)n1 [Ceftaroline]" recorded_measurement="> 256 µg/mL"

Give K. pneumoniae NVT1001 strains with carbapenemase plasmids MIC for CC(=O)OCC1=C(C(=O)O)N2C(=O)[C@@H](NC(=O)Cc3cccs3)[C@H]2SC1 [Cephalothin]
> 256 µg/mL

How about CC(C)(O/N=C(\C(=O)N[C@@H]1C(=O)N2C(C(=O)[O-])=C(C[n+]3ccccc3)CS[C@H]12)c1csc(N)n1)C(=O)O [Ceftazidime] ?
> 256 µg/mL

How about CO/N=C(\C(=O)N[C@@H]1C(=O)N2C(C(=O)O)=C(COC(C)=O)CS[C@H]12)c1csc(N)n1 [Cefotaxime] ?
> 256 µg/mL

How about C[C@@H](O)[C@H]1C(=O)N2C(C(=O)O)=C(SCCN=CN)C[C@H]12 [Imipenem] ?
> 32 µg/mL
